Recorded values, source the nanobody polyreactivity screen of Harvey et al. (2022).

PROTOCOL DETAILS: yeast display, Sf9 membrane polyspecificity reagent, FACS + sequencing; frameworks hold sequencing errors
PROPERTY LABEL: polyreactivity (PSR sort gate)

- SEQ: "QVQLVESGGCLVQAGGSLRLSCAASGRIYIGYAMGWYRQAPGKERELVAAITTGGRTSYAVSVKGRFTISRDNAKNTVYLQMNSLKPVDTAVYYCAKRKSYNFPTRRPYYRRYYYWGQGTQVTVSS"
  PROPERTY LABEL: "polyreactivity (PSR sort gate)"
  RESULT: "high polyreactivity"
- SEQ: "QVQLVESGGGLVQAGGSLRLSCAASGSTFEGNVMGWDRQATGKERELVATITGSGGRTYADSVKGRFTISRDNAKNTVYLQMNSLKPEDTAVYYCYAVSTASDEYDYWGQGTQVTVSS"
  PROPERTY LABEL: "polyreactivity (PSR sort gate)"
  RESULT: "low polyreactivity"
- SEQ: "QVQLVESGGGLVQAGGSLRLSCAASGRIFGYNAMGWYRQAPGKERELVAAITNGGSTNYADSVKGRFTISRDNAKNTVYFHMNSLKPEDTAVYYCAVKWYPPGHDYWGQGTQVTVSS"
  PROPERTY LABEL: "polyreactivity (PSR sort gate)"
  RESULT: "low polyreactivity"
- SEQ: "QVQLVESGGGLVQAGGSLRLSCAASGRTFRVYAMGWYRQAPGKERELVAAINGGGSTNYADSVKGRFTISRDNAKNTVYVQMNSLKPEDTAVYYCNATGRRSKRIYDYWGQGTQVTVSS"
  PROPERTY LABEL: "polyreactivity (PSR sort gate)"
  RESULT: "high polyreactivity"
- SEQ: "QVQLVESGGGLVQAGGSLRLSCAASGLIFSDYAMGWYRQAPGKERELVAAISGIGTRTSYADSVKGRFTISRDNAKNTVYLQMNSLKPEDTAVYYCAARYYGFPSTLKYDYWGQGTQVTVSS"
  PROPERTY LABEL: "polyreactivity (PSR sort gate)"
  RESULT: "high polyreactivity"

====

PROTOCOL DETAILS: yeast display, Sf9 membrane polyspecificity reagent, FACS + sequencing; frameworks hold sequencing errors

- SEQ: "QVQLVESGGGLVQAGGSLRLSCAASGSTFTPNAMVWYRQAPGKERELVAAINWSDSSTYYADSVKGRFTISRDNAKNTVYLQMNSLKPEDTAVYYCAAAAQYGQLQVPVYYWGQGTQVTVSS"
  polyreactivity (PSR sort gate): "low polyreactivity"
- SEQ: "QVQLVESGGGIVQAGGSLRLSCAASGNIFHKNAMGWYRQAPGKERELVASISCSGGSTYYADSVKGRFTISRDNAKNTVYLQMNSLKPEDTAVYYCATDAFGYPVNRYALNDYWGQGTQVTVSS"
  polyreactivity (PSR sort gate): "low polyreactivity"
- SEQ: "QVQLVESAGGLVQAGGTLRLSCAASGSIFRTHTMGWYRQAPGKERELVAAITAIGDSTYYADAVKGRFTISRDNAKNTVNRQLHSLKPEDTAVYYCAAEKVSWGYHFYSSYDYWGQGTQVTVSS"
  polyreactivity (PSR sort gate): "low polyreactivity"
- SEQ: "QVQLVESGGGLVQAGGSLRLSCAASGSIFVRNAMGWYRQAPGKERELVAAISRSGSSTYYADSVKGRFTISRDIAKNTVYLQMNSLKPEDTAVYYCAARRRYKMDYWGQGTQVTVSS"
  polyreactivity (PSR sort gate): "high polyreactivity"
- SEQ: "QVQLVESGGGLVQAGGSLRLSCAACGGTFRSNAMGWYRQAPGKERELVAASTNYADSVKGRFTISRDNAKNTVYLQMNSLKPEDTAVYYCAAGPTDSQTGMDYWGQGTQVTVSS"
  polyreactivity (PSR sort gate): "low polyreactivity"
- SEQ: "QVQLVESGGGLVQAGGSLRLSCAASGSIFGVYAMGWYRPAPGKERELVAVIRWRGGSTYYADSVKGRFTISRDNAKNTVYLQMNSLKPEDTAVYYCAARRHIVVATYDRRYDYWGQGTQVTVSS"
  polyreactivity (PSR sort gate): "low polyreactivity"
- SEQ: "QVQLVESGGGLVQAGGSLRLSCAASGFIFPANAMGWYRQAPGKEREFVAAISRSGGTTYYADSVKGRFTISRDNAKNTVYLQMNSLKPEDTAVYYCAARYAIGPGYDYWGQGTQVTVSS"
  polyreactivity (PSR sort gate): "high polyreactivity"
- SEQ: "QVQLVESGGGLVQAGGSLRLSCAASGSTFQINAMGWYRQAPGKERELVAAIDGGGDTYYADSVKGRFTISRDNAKYTVYLQMNSMKPEDTAVYYCAAERRIYYQDFNFWGQGTQVTVSS"
  polyreactivity (PSR sort gate): "low polyreactivity"
- SEQ: "QVHLVESGGGEVQAGGSLRLSCAASGRTFYNYAMGWYRQAPGKERELVASIRKNGGSTYYAYSVKGRFSISRDNAKNTVYLQMNSLKPEDTAVYYFAARYWGISRIFPSKYDYWGQGTQVTVSS"
  polyreactivity (PSR sort gate): "high polyreactivity"
- SEQ: "QVQLVESGGGLVQAGGSLRLSCAASGSISGWYAMGWYRQAPGKERELVADISSIAGSTYYADCVKGRFTISRDNAKNTDSLQKNSLKPEDTAVYYGAADRGVDYEYDYWGQGTQVTVSS"
  polyreactivity (PSR sort gate): "low polyreactivity"
- SEQ: "QVQLVESGGGLVQAGGSLRLSCAASGRTFDTNAMGWYRQAPGKERELVAGITIGGSTNYADSVKGRFTISRDNAKNTVYLQMNILKPEDTAVYYCAADYGSVRGYAADYYEPEYDYWGQGTQVTVSS"
  polyreactivity (PSR sort gate): "low polyreactivity"
- SEQ: "QVQLVESGGGLVQAGGSLRLSCAASGFIFVRYALGWYSQAPGKEMELVAAIRRGGGDSSYYADSVKGRFTISRDNAKNTVYLQMNSLKPEDTAVYYCAARPAIERDYWGQGTQVTVSS"
  polyreactivity (PSR sort gate): "high polyreactivity"
- SEQ: "QVQLVESGGGLVQAGGSLRLSCAASGITFCDNTMGWYRQAPGKERELVAAITYSSTSTYYADSVKGRFTISRDNAKNTVYLQMNSLKTEDTAVYYCAAEGPGDVVSTDYDFWGQGTQVTVSS"
  polyreactivity (PSR sort gate): "low polyreactivity"
- SEQ: "QVHLVESGGGLVQAGGSLRLSCAPSGSIFRNYAMGWYRQAPGKESELVATISGRGGRTYYEDSVKGRFTISRDNAKNTVYLQMNSLKPEDTAVYYCAARGTLGKYSTASVYSGQGTQVTVSS"
  polyreactivity (PSR sort gate): "high polyreactivity"
- SEQ: "QVQLVESGGGLVQAGGSLRLSCAASGFTFGSYAMGWYRQAPGKERELVAASTRRGDNTYYADSVKGRFTISRDNAKNTVYLQMNSLKPEDTAVYYCNVGLRSVVSGEYWGHGTQVTVSS"
  polyreactivity (PSR sort gate): "high polyreactivity"
- SEQ: "QVQLVESGGGLVQAGGSLRLSCAASGRTFGTYVMGWYRQAPGKERELVAAITGSGGSTYYADSVKGRFTISRDNAKNTVYLQMNSLKPEDPAVYYCAARAYQHYNWGQGTQVTVSS"
  polyreactivity (PSR sort gate): "high polyreactivity"
- SEQ: "QVQLVESGGGLVQAGGSLRLSCAASGRTFRNNTMGCYRQAPGKERELVATITGSGGSTYYADSVKGRFTISRDNSKNTVYLQMNSLKPEDTAVYYCAAVGDQNEYVYWGQGTQVTVSS"
  polyreactivity (PSR sort gate): "low polyreactivity"
- SEQ: "QEQLVESGGGLVQAGGSLRLSCDASGRTLSRYTMGWYRQPPGQETELVAAISTSGSTYYADSVKGRFTISRDNAKNPVYLQMNSVKPDDTGVYYCNAVGLYLHYATGYDYWGQGRQVTVSS"
  polyreactivity (PSR sort gate): "high polyreactivity"
- SEQ: "QVQLVESGGGLVQAGGSLRLSCAASGFTFSSYAMGWYRQAPGKERELVAAITYRGGSTYYADSVKGRFTISRDNAKNTVYLQMNSLKPEDTAVYYCAARWGYRMYWGQGTQVTVSS"
  polyreactivity (PSR sort gate): "high polyreactivity"
- SEQ: "QVQLVESGGGLVQAGGSLRLSCAASGSIFPYYAMGWYRQAPGKETELVAVINSGGITNYADSVKGRFTISRDNAKNTVYLQMNSLKPEDTAVYYCAAAASPLTRHLYWGQGTQVTVSS"
  polyreactivity (PSR sort gate): "low polyreactivity"
- SEQ: "QVQLVESGGGLVQAGGSLRLSCAASGRTFRGYAMGWYRQAPGKETELVAAISSGGSTYYADSVKGRFTSSRDNAKYTVYLQMNSLKPEDTAVYYCARAVGNYRTLEFDYWGQGTQVTVSS"
  polyreactivity (PSR sort gate): "low polyreactivity"
